Readings of viability, T/C for the listed compounds
system: NCI-H196 SCLC complex tumor spheroid viability; test: Anticancer human tumor NCI-H196 cell line growth inhibition; details: second compound 0.0949 µM; first compound 3.16 µM; active compounds read low;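 note: spheroids exposed to compounds for 7 days before readout; 100% = DMSO vehicle control wells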
Please respond with the number in % and leave the unit unwritten.

Worked examples follow.
[
  {
    "compound": "[2H]c1nc(C)nc([2H])c1-c1cc(NC[C@@H](C)c2cccc3c(C(=O)NC)ccnc23)ncn1 + CC[C@@]1(O)C(=O)OCc2c1cc1n(c2=O)Cc2cc3c(CN(C)C)c(O)ccc3nc2-1",
    "viability, T/C / %": 100
  },
  {
    "compound": "COc1ccc([C@@H](O)c2cc(-c3ncnc4cc(N5CCOCC5)ccc34)c(F)cc2Cl)nn1 + CC[C@@]1(O)C(=O)OCc2c1cc1n(c2=O)Cc2cc3c(CN(C)C)c(O)ccc3nc2-1",
    "viability, T/C / %": 46.2
  }
]

Please find the next compound below.
### Prompt Given the entry CC1COCCN1c1cc(-c2ccnn2C)c2ccnc(-c3ccn[nH]3)c2n1 (stereo unspecified) + CC[C@@]1(O)C(=O)OCc2c1cc1n(c2=O)Cc2cc3c(CN(C)C)c(O)ccc3nc2-1 , report its measured viability, T/C.
### Response 50.7
